- Experimental Details: self-splicing fitness, log relative to wild type (ln ratio); higher = more splicing; Tetrahymena group I intron in knt gene, E. coli kanamycin selection, DiMSum; sequences stand for … in CUCUCU…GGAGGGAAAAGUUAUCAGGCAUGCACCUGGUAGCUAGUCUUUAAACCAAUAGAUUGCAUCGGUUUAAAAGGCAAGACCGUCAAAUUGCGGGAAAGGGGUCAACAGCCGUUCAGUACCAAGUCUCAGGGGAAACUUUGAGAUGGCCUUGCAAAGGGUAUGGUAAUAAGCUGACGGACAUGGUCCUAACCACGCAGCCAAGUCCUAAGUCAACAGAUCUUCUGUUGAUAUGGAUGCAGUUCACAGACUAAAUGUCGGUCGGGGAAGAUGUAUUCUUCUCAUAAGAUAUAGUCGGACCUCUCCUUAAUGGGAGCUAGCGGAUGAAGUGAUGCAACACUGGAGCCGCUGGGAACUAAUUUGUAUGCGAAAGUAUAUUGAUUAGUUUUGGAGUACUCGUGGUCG;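 further: selection with 25 µg/mL kanamycin versus none on LB agar overnight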
- Condition Label: 30 °C
Output MET for self-splicing fitness (ln) not less than -1; output NOT MET otherwise.

> print(dat)
         sequence.chain  group.label
1  UUCCAGCAAUAUUACGAUUA          MET
2  CGGAAGCAAUAUUACGGACA          MET
3  ACCGAGCAAUAUUACGGUUG      NOT MET

Say whether `GCGGAGCAAUAUUACGUGUC` shows self-splicing fitness (ln) of -1 or more.
NOT MET

Could you tell me if the measured self-splicing fitness (ln) of `AAUAAGCAAUAUUACGAGGA` reaches -1 or more?
NOT MET

Determine whether this sequence has self-splicing fitness (ln) no lower than -1: `ACCAAGCAAUAUUACGGAUG`
NOT MET

Item `ACGGAGCAAUAUUACGCAGA` with self-splicing fitness (ln) of -1 or above?
NOT MET

meta.source: the supplement of paper PMC7877785
